Hello, the source for this data is paper PMC9455983, in case you need it.

molecular target: delta-opioid receptor (DOR) (Rattus norvegicus, UniProt P33533); construct: Rat cortices were homogenized using 50 mM Tris, pH 7.4, 10 mM MgCl2-6H2O, 200 µM PMSF; from tissue; host or cells: rat cortex membranes; experiment: DOR radioligand competition binding assay ([3H]-DPDPE); settings: Delta screening results, mean of two experiments; read-out: Ki
observable: Ki (µM)
One number for each entry, in µM.

# compound structure, endpoint result
records = [
    ("CC(C)C[C@@H](CN1C(=N)NC[C@@H]1Cc1ccc(O)cc1)N1C[C@H](Cc2ccc(O)cc2)NC1=N", 8.07),
]

Dear colleague, could you send me Ki for each of the items below? Thanks.
1. Cc1cc(O)cc(C)c1C[C@H]1CNC(=N)N1C[C@H](Cc1ccccc1)N1C[C@H](CC(C)C)NC1=N
2. Cc1cc(O)cc(C)c1C[C@H]1CN([C@@H](CC(C)C)CN2C(=N)NC[C@@H]2C)C(=N)N1
3. Cc1cc(O)cc(C)c1C[C@H]1CNC(=N)N1C[C@H](Cc1ccc(O)cc1)N1C[C@H](CC(C)C)NC1=N
4. Cc1cc(O)cc(C)c1C[C@H]1CN([C@@H](CC(C)C)CN2C(=N)NC[C@@H]2Cc2ccc(O)cc2)C(=N)N1

2.56
7.63
3.43
5.07

Dear colleague, could you send me Ki for each of the items below? Thanks.
1. N=C1NC[C@H](Cc2ccc(O)cc2)N1C[C@H](Cc1ccccc1)N1C[C@H](Cc2ccc(O)cc2)NC1=N
2. Cc1cc(O)cc(C)c1C[C@H]1CNC(=N)N1C[C@H](CC(C)C)N1C[C@H](CC(C)C)NC1=N

[8.08, 4.21]

* * *

I'd be grateful if you could share measured Ki for these entries.
target: kappa-opioid receptor (KOR) (Cavia porcellus); construct: Guinea pig cortices and cerebella were homogenized using 50 mM Tris, pH 7.4; from tissue; host or cells: guinea pig cortex and cerebellum membranes; experiment: KOR radioligand competition binding assay ([3H]U69,593); set-up: species or system guinea pig; settings: Kappa screening results, mean of two experiments; read-out: Ki
Dear colleague, please send the value followed by its unit.

Some compounds with recorded Ki:
# compound structure, observable, endpoint result
data = [
    ("CC(C)C[C@H]1CN([C@@H](CC(C)C)CN2C(=N)NC[C@@H]2Cc2ccccc2)C(=N)N1", "Ki", "11.4 µM"),
    ("Cc1cc(O)cc(C)c1C[C@H]1CN([C@@H](Cc2c(C)cc(O)cc2C)CN2C(=N)NC[C@@H]2Cc2ccc(O)cc2)C(=N)N1", "Ki", "1.62 µM"),
    ("Cc1cc(O)cc(C)c1C[C@@H](CN1C(=N)NC[C@@H]1Cc1ccccc1)N1C[C@H](Cc2ccccc2)NC1=N", "Ki", "1.17 µM"),
    ("Cc1cc(O)cc(C)c1C[C@H]1CNC(=N)N1C[C@H](CC(C)C)N1C[C@H](Cc2ccc(O)cc2)NC1=N", "Ki", "0.659 µM"),
    ("Cc1cc(O)cc(C)c1C[C@H]1CNC(=N)N1C[C@H](Cc1ccccc1)N1C[C@H](CC(C)C)NC1=N", "Ki", "0.755 µM"),
]

Dear colleague, could you send me Ki for each of the items below? Thanks.
1. N=C1NC[C@H](Cc2ccc(O)cc2)N1C[C@H](Cc1ccc(O)cc1)N1C[C@H](Cc2ccc(O)cc2)NC1=N
2. Cc1cc(O)cc(C)c1C[C@@H](CN1C(=N)NC[C@@H]1Cc1ccccc1)N1C[C@H](CC(C)C)NC1=N
3. C[C@H]1CNC(=N)N1C[C@H](Cc1ccc(O)cc1)N1C[C@H](Cc2ccc(O)cc2)NC1=N
4. CC(C)C[C@H]1CN([C@@H](Cc2ccccc2)CN2C(=N)NC[C@@H]2Cc2ccccc2)C(=N)N1
5. Cc1cc(O)cc(C)c1C[C@H]1CNC(=N)N1C[C@H](CC(C)C)N1C[C@H](Cc2ccccc2)NC1=N

["8.32 µM", "0.536 µM", "1.82 µM", "4.67 µM", "0.525 µM"]

Dear colleague, could you send me Ki for each of the items below? Thanks.
1. Cc1cc(O)cc(C)c1C[C@@H](CN1C(=N)NC[C@@H]1Cc1ccc(O)cc1)N1C[C@H](CC(C)C)NC1=N
2. N=C1NC[C@H](Cc2ccccc2)N1C[C@H](Cc1ccccc1)N1C[C@H](Cc2ccc(O)cc2)NC1=N
3. Cc1cc(O)cc(C)c1C[C@H]1CN([C@@H](Cc2ccccc2)CN2C(=N)NC[C@@H]2Cc2c(C)cc(O)cc2C)C(=N)N1
4. Cc1cc(O)cc(C)c1C[C@H]1CN([C@@H](Cc2c(C)cc(O)cc2C)CN2C(=N)NC[C@@H]2C)C(=N)N1
5. CC(C)C[C@@H](CN1C(=N)NC[C@@H]1Cc1ccccc1)N1C[C@H](Cc2ccccc2)NC1=N
6. Cc1cc(O)cc(C)c1C[C@H]1CNC(=N)N1C[C@H](Cc1ccc(O)cc1)N1C[C@H](CC(C)C)NC1=N
7. N=C1NC[C@H](Cc2ccccc2)N1C[C@H](Cc1ccc(O)cc1)N1C[C@H](Cc2ccccc2)NC1=N

2.33 µM
5.46 µM
1.22 µM
0.218 µM
11.1 µM
0.38 µM
3.84 µM

Dear colleague, could you send me Ki for each of the items below? Thanks.
1. N=C1NC[C@H](Cc2ccc(O)cc2)N1C[C@H](Cc1ccc(O)cc1)N1C[C@H](Cc2ccccc2)NC1=N
2. Cc1cc(O)cc(C)c1C[C@H]1CN([C@@H](Cc2ccccc2)CN2C(=N)NC[C@@H]2Cc2ccc(O)cc2)C(=N)N1
3. N=C1NC[C@H](Cc2ccc(O)cc2)N1C[C@H](Cc1ccccc1)N1C[C@H](Cc2ccc(O)cc2)NC1=N

["3.44 µM", "0.818 µM", "3.55 µM"]

Dear colleague, could you send me Ki for each of the items below? Thanks.
1. C[C@H]1CNC(=N)N1C[C@H](Cc1ccc(O)cc1)N1C[C@H](Cc2ccccc2)NC1=N
2. Cc1cc(O)cc(C)c1C[C@H]1CN([C@@H](CC(C)C)CN2C(=N)NC[C@@H]2C)C(=N)N1
3. Cc1cc(O)cc(C)c1C[C@H]1CNC(=N)N1C[C@H](Cc1c(C)cc(O)cc1C)N1C[C@H](CC(C)C)NC1=N
4. N=C1NC[C@H](Cc2ccc(O)cc2)N1C[C@H](Cc1ccccc1)N1C[C@H](Cc2ccccc2)NC1=N
5. Cc1cc(O)cc(C)c1C[C@H]1CNC(=N)N1C[C@H](Cc1ccccc1)N1C[C@H](Cc2ccc(O)cc2)NC1=N
6. Cc1cc(O)cc(C)c1C[C@H]1CNC(=N)N1C[C@H](Cc1c(C)cc(O)cc1C)N1C[C@H](Cc2ccccc2)NC1=N
7. Cc1cc(O)cc(C)c1C[C@H]1CNC(=N)N1C[C@H](Cc1ccc(O)cc1)N1C[C@H](Cc2ccc(O)cc2)NC1=N
8. Cc1cc(O)cc(C)c1C[C@H]1CN([C@@H](Cc2ccccc2)CN2C(=N)NC[C@@H]2C)C(=N)N1

1: 3.66 µM; 2: 1.63 µM; 3: 1.55 µM; 4: 6.55 µM; 5: 1.82 µM; 6: 1.05 µM; 7: 1.53 µM; 8: 1.17 µM

Using the record for `Cc1cc(O)cc(C)c1C[C@H]1CN([C@@H](Cc2c(C)cc(O)cc2C)CN2C(=N)NC[C@@H]2Cc2ccccc2)C(=N)N1` , state its measured Ki. 0.553 µM
